- System: U251 CNS
- PROTOCOL NOTES: NCI-60 one-dose screen, 48 h
- SETUP CONDITIONS: 10 µM unless noted
This is part of a sample that, as a whole, favours compounds with a hit. Of some 83,000 tested, about 20% had one in any assay. Activity calls are given as the source filed them. Rule for the calls: active = growth percent below 10; inactive = the rest.
Labels: true (1) = active, false (0) = inactive

>>> label("CN(C)c1ccc(Nc2c3ccccc3nc3ccccc23)cc1")
"false (0)"
>>> label("Nc1nc(N)c2c(n1)NC(c1sc(Cl)nc1Cl)CC(c1ccccc1)=N2 (stereo not drawn)")
"false (0)"
>>> label("Cc1ccc(-c2cnc3sc4ccc(Cl)cc4n23)cc1")
"false (0)"
>>> label("Cc1ccc(S(=O)(=O)NC(CCC(=O)Nc2ccc(Cl)cc2)C(=O)Nc2ccc(Cl)cc2)cc1 (stereo not drawn)")
"false (0)"
>>> label("CNC(=O)c1cc(Oc2ccc(NC(=O)c3nc(S(C)(=O)=O)sc3-c3ccc(F)cc3)cc2)ccn1")
"false (0)"
>>> label("Cc1cc(O)c(C2=NN(c3ccc(S(N)(=O)=O)cc3)C(c3ccc(Cl)cc3)C2)c(C)c1Cl (stereo not drawn)")
"false (0)"
>>> label("COc1cc2c(cc1OC)C(=O)OC2")
"false (0)"
>>> label("O=C(Nc1ccc(OS(=O)(=O)c2ccc(F)cc2)cc1)C12CC3CC(CC(C3)C1)C2")
"false (0)"
>>> label("Cc1ccc2oc(=O)cc(-c3nc4ccc([N+](=O)[O-])cc4[nH]3)c2c1")
"false (0)"
>>> label("CC(=O)c1cc(C(=O)c2ccc3c(c2)Sc2ccccc2N3)c2c(C)cccn12")
"false (0)"
>>> label("O=C(Nc1ccc2[nH]c3ccccc3c2c1)c1ccccc1Cl")
"false (0)"
>>> label("COc1ccc(Nc2ncccc2C(=O)NCc2cn(Cc3cc(OC)cc(OC)c3)nn2)cc1")
"false (0)"
>>> label("CN1CCN(Cc2ccc(NC(=O)c3cccc(C#Cc4cnc(N)c5ncccc45)c3F)cc2C(F)(F)F)CC1")
"true (1)"
